# EXPERIMENT NOTES: AUC (infinity) in BALB-C mouse at 9 mg/kg, po by LC-MS/MS analysis
# Assay type: ADME, organism-based
# Parameters: dose 9 mg/kg, time infinity, route oral
# EXPERIMENTAL CONTEXT: in vivo
PROPERTY NAME: AUC(0-inf)
Quick note: number first, unit second.

get_value(item= CS(=O)(=O)N1CCN(Cc2cc3c(N4CCOCC4)nc(-c4cnc(N)nc4)cn3n2)CC1 , readout=AUC(0-inf)) returns 5150 ng·h/mL

====

# EXPERIMENT NOTES: Tmax in BALB-C mouse at 5 mg/kg, po by LC-MS/MS analysis
# Format: ADME, organism-based
# EXPERIMENTAL CONTEXT: in vivo
PROPERTY NAME: Tmax (h)
# number only, unit h dropped from output

Consider CS(=O)(=O)N1CCN(Cc2nc3c(N4CCOCC4)nc(-c4cnc(N)nc4)c(Cl)n3n2)CC1 . Its measured Tmax is 1

====

# TARGET: PI3-kinase p110-delta/p85-alpha (Homo sapiens, UniProt O00329)
# Sequence (P27986 whole entry): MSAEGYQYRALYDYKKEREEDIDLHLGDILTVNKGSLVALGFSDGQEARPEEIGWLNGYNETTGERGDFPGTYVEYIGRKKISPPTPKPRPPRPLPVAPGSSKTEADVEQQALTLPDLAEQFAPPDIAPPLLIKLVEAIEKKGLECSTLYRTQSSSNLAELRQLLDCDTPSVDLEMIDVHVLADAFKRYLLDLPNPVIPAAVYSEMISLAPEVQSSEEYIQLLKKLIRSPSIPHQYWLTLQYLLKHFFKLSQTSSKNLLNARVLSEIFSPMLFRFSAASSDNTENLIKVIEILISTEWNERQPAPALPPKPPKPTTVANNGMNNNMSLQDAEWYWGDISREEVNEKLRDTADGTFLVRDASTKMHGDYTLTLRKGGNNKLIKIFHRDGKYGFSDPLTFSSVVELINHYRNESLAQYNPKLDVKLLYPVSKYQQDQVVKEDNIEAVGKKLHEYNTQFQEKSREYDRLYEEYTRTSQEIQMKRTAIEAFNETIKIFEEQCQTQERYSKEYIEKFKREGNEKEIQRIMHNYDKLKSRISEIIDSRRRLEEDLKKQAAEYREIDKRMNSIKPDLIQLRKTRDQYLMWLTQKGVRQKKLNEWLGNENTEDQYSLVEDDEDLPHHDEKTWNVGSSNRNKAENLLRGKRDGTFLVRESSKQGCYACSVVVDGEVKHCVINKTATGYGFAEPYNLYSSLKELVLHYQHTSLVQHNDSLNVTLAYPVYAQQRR
# Sequence (O00329 whole entry): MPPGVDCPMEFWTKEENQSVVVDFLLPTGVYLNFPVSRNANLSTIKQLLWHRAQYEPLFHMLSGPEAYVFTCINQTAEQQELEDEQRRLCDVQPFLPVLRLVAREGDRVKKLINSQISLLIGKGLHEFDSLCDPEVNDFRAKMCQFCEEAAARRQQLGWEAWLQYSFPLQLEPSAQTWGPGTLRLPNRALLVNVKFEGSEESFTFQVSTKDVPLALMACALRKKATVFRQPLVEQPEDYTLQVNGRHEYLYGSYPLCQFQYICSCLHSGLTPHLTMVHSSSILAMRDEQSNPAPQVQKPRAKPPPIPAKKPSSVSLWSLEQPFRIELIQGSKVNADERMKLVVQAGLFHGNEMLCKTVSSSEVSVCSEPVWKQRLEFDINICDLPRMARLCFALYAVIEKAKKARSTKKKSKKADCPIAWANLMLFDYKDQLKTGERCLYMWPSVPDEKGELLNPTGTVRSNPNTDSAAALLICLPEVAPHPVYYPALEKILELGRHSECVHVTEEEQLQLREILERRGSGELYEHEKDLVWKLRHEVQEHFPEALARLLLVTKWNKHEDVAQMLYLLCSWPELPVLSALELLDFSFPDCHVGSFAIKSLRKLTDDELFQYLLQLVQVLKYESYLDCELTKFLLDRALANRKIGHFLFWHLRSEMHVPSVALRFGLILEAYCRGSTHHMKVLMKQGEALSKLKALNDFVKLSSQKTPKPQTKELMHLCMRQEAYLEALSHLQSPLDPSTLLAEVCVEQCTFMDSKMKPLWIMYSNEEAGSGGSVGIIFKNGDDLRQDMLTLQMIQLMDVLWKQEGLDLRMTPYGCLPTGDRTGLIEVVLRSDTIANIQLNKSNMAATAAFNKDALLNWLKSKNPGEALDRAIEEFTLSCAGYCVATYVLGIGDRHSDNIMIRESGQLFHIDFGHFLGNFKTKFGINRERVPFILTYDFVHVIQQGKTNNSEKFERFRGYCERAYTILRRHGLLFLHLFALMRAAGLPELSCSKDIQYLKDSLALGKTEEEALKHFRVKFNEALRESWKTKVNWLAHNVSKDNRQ
# EXPERIMENT NOTES: Inhibition of recombinant human full-length N-terminal His6-tagged p110delta/human full-length p85alpha expressed in baculovirus infected Sf21 insect cells using PIP2 as substrate by HTRF assay
# EXPERIMENTAL CONTEXT: read-out: Ki(app)
Decide using Ki alone. Strictly below 7 nM: Yes. Equal to or above 7 nM: No.

CS(=O)(=O)N1CCN(Cc2cn3nc(-c4cnc(N)nc4)nc(N4CCOCC4)c3n2)CC1 | No
CS(=O)(=O)N1CCN(Cc2nc3c(N4CCOCC4)nc(-c4cnc(N)nc4)c(Cl)n3n2)CC1 | Yes
CS(=O)(=O)N1CCN(Cc2cc3c(N4CCOCC4)nc(-c4cnc(N)nc4)c(Cl)n3n2)CC1 | No

Kindly review the next molecule as well.
Prompt: Decide: Ki of CS(=O)(=O)N1CCN(Cc2nc3c(N4CCOCC4)nc(-c4cnc(N)nc4)cn3n2)CC1 strictly below 7 nM?
Completion: Yes

====

# EXPERIMENT NOTES: Clearance in BALB-C mouse at 3 mg/kg, iv by LC-MS/MS analysis
# Assay type: ADME, organism-based
# EXPERIMENTAL CONTEXT: in vivo
PROPERTY NAME: clearance (mL/min/kg)
Give the value, in units of mL/min/kg, as a plain number.

Entry under test: CS(=O)(=O)N1CCN(Cc2cc3c(N4CCOCC4)nc(-c4cnc(N)nc4)cn3n2)CC1 . Its clearance was 10.8

====

# EXPERIMENT NOTES: Oral bioavailability in BALB-C mouse at 10 mg/kg by LC-MS/MS analysis
# Assay type: ADME, organism-based
# EXPERIMENTAL CONTEXT: in vivo
PROPERTY NAME: bioavailability (%)
Express it in %; write the number only.

CS(=O)(=O)N1CCN(Cc2nc3c(N4CCOCC4)nc(-c4cnc(N)nc4)cn3n2)CC1 | 88

Next up:
Entry CS(=O)(=O)N1CCN(Cc2cc3c(N4CCOCC4)nc(-c4cnc(N)nc4)c(Cl)n3n2)CC1 ; bioavailability = 43.1

====

# EXPERIMENT NOTES: Cmax in BALB-C mouse at 8 mg/kg, po by LC-MS/MS analysis
# Format: ADME, organism-based
# Set-up: dose 8 mg/kg, route oral
# EXPERIMENTAL CONTEXT: in vivo
PROPERTY NAME: Cmax (ng/mL)
The answer is to be given in ng/mL; state only the numeric part.

The compound listed as CS(=O)(=O)N1CCN(Cc2cn3cc(-c4cnc(N)nc4)nc(N4CCOCC4)c3n2)CC1 has a reported Cmax of 1130
